# assay_target: T1, human CCR8 (human, UniProt P51685 1-355)
# T1 construct: also called hCCR8; hCCR8_P51685
# test_details: flow cytometry, hCCR8 transfected CHOK1 cells
measured_quantity: MFI fold change to isotype ctrl (fold)
Dear colleague, please return just the value in fold, with no unit written.

>  <binder>
anti-CCR8 mAb 2-11 (antibody, V domains shown) VH: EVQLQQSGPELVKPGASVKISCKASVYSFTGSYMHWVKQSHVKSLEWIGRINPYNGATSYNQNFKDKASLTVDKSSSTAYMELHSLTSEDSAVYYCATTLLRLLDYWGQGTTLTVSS VL: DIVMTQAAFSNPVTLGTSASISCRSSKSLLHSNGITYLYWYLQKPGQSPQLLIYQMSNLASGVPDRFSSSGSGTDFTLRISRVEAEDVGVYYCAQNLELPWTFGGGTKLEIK

>  <measured_result>
2.34

$$$$
>  <binder>
anti-CCR8 mAb 2-2 (antibody, V domains shown) VH: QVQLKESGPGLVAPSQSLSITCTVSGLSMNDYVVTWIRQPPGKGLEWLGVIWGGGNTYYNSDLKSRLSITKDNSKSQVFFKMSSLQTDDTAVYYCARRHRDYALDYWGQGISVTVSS VL: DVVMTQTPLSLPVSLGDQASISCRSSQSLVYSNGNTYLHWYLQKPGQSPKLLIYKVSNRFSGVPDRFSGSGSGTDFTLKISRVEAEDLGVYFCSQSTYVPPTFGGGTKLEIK

>  <measured_result>
11.9

$$$$

Now for the binder whose MFI fold change to isotype ctrl we want.
INPUT: Need MFI fold change to isotype ctrl, item anti-CCR8 mAb 2-10 (antibody, V domains shown) VH: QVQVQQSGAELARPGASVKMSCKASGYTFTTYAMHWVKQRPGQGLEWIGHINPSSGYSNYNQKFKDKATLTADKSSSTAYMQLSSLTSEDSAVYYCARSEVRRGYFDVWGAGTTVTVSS VL: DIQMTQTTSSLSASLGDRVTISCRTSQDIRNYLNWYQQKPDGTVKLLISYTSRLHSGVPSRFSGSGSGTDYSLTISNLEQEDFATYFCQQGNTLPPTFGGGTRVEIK
OUTPUT: 9.2
